tested on: SF-268; experiment: NCI tumour cell line growth inhibition, 48 h
Activity calls are given as the source filed them. No stated cut-off is given here; in the data, active = GI50 up to about 1.1 µM and inactive = higher.
# output must be one of true (1) for active, false (0) for inactive

O=C(/C=C/c1c[nH]c2ccccc12)c1ccccc1O = false (0)
Cc1cc2c(c(C(N)=O)c1C)-c1cccc(Cl)c1C2=O = false (0)
O=C(O)c1cc2ccccc2oc1=O [COUMARIN-3-CARBOXYLIC ACID] = false (0)

With those in mind, consider the next molecule.
What is the recorded call for this molecule in the test? `CN(C)/C=N\c1cc[nH]c(=O)n1`
false (0)

====

tested on: NCI/ADR-RES; assay: NCI tumour cell line growth inhibition, 48 h
Calls of active or inactive are those of the source. Rule as the data show it: active = GI50 up to about 1.1 µM and inactive = higher.
EXPERIMENTAL ENDPOINT: GI50

# annotated cases, reported GI50 shown
CC(=O)O[C@H]1CCC2[C@@H]3CCC4NC(=O)C(C#N)C[C@]4(C)C3CC[C@@]21C (stereo not given in full) = > 10 µM (inactive)
COc1ccc(NC(=O)CC(=O)NNC(Sc2ccccc2)c2cc(/N=N/c3ccc(Br)cc3)ccc2O)cc1 (stereo not given) = > 10 µM (inactive)
COc1ccc(C2CC(c3sc(Nc4ccc(C)cc4)nc3C)=NN2)cc1 (stereo not given) = 17.4 µM (inactive)
C=CCc1cccc2cc(C(N)=O)c(=N)oc12 = > 100 µM (inactive)

Next item in the queue.
# GI50 lookup, item `O=c1c2cc(Cl)ccc2[nH]c2cc(O)cc(O)c12`
> 10 µM (inactive)

====

tested on: MDA-N; assay: NCI tumour cell line growth inhibition, 48 h
Activity calls are given as the source filed them. No stated cut-off is given here; in the data, active = GI50 up to about 1.1 µM and inactive = higher.
# output must be one of YES = active, NO = inactive

# count of solved cases: 8
CN(C)c1n/c(=N/Cc2cccs2)ss1 = NO
CC(=O)O[C@@H]1C2=C(C3=C([O-])C4=CC=CC(=O)C4C(=O)C3=C2[N+]#N)[C@H](OC(C)=O)[C@@H](OC(C)=O)[C@]1(C)O (some centres undefined) = YES
CCOC(=O)NC(=S)NC(C)c1ccccc1 (centres undefined) = NO
O=C1SC(c2ccc(Cl)cc2)(c2ccc(Cl)cc2)c2ccccc21 = NO
COc1cc(NS(C)(=O)=O)ccc1Nc1c2ccccc2nc2ccccc12 = NO
Cc1csc2c1C(=O)c1ccsc1C2=O = YES
COC1=C(Br)C(O)C2(C=C1Br)CC(C(=O)NCCCCNC(=O)C1=NOC3(C=C(Br)C(OC)=C(Br)C3O)C1)=NO2 (centres undefined) = NO
COC(=O)c1c(O)ccc2c1c1c(n2Cc2ccccc2)C(=O)c2ccccc2C1 = NO

With those in mind, consider the next molecule.
What is the recorded call for this molecule in the test? `COc1cc(/C=C2\N=C(c3ccccc3)N(c3ccc(C(=O)c4ccccc4)cc3N3C(=O)/C(=C/c4ccc(O)c(OC)c4)N=C3c3ccccc3)C2=O)ccc1O`
NO

====

GI50 overview
tested on: DMS-273; test: NCI tumour cell line growth inhibition, 48 h
Calls of active or inactive are those of the source. No stated cut-off is given here; in the data, active = GI50 up to about 1.1 µM and inactive = higher.

# annotated cases, reported GI50 shown
CN(C)/C=N\c1cc[nH]c(=O)n1 = > 100 µM (inactive)
CC(=O)OCC1OC(Sc2ccccn2)C=CC1OC(C)=O (stereo not given) = > 100 µM (inactive)
Nc1nc(=O)n([C@@H]2CC[C@H](CO)O2)cc1F = > 100 µM (inactive)
Brc1ccc(N2C[N+](c3ccc(Br)cc3)=NC(c3ccccc3)=N2)cc1.[O-][Cl+3]([O-])([O-])[O-] = 50.1 µM (inactive)
CON(C)C(=O)C(Cc1ccccc1)NC(=O)OCc1ccccc1 (stereo not given) = > 100 µM (inactive)

# GI50 lookup, item `CC[n+]1c(/C=C/c2cc(C(=O)OC)n3c2sc2ccccc23)sc2ccccc21`
17.6 µM (inactive)

# GI50 lookup, item `Cc1ccc(NC(=O)/C(=N/NC(=O)C[N+](C)(C)C)c2nc3ccccc3nc2O)cc1`
> 100 µM (inactive)

# GI50 lookup, item `CCOC(=O)Cc1nc2ccccc2s1`
22.6 µM (inactive)

# GI50 lookup, item `NS(=O)(=O)c1cc2c(cc1Cl)NC(C(=O)NNC(=O)c1ccncc1)=NS2(=O)=O`
> 100 µM (inactive)

# GI50 lookup, item `O=C(O)CN(c1ccccc1)S(=O)(=O)c1ccc(NC(=O)c2ccccc2)cc1`
> 100 µM (inactive)
